# Read-out: Interleukin-6 (IL6), IL6 (gene 3569)
# testName: BSK_CASM3C_IL6: BioMAP Diversity Plus: CASM3C Assay for Interleukin-6 (IL6) Biomarker Activity for (AID 2283040)
# experimentalContext: primary human coronary artery smooth muscle cells; actives raise or lower the signal
Activity calls are given as the source filed them. The calls were made as follows: active = hit-call score of the fitted dose curve at least 0.9, where 1 is the maximum; inactive = score below 0.9.
I would appreciate it if you answered using one of these outcomes: active, inactive

O=C(NO)c1ccccc1 inactive
C=CC(=C)CC/C=C(\C)CCC=C(C)C inactive

// return assay outcome for Cc1ccc(C(=O)c2ccccc2)cc1
inactive

Also, CC(=O)Nc1ccc(O)cc1 please.
inactive

What about this molecule? Clc1ccc(Nc2nnc(Cc3ccncc3)c3ccccc23)cc1
inactive

And O=C(c1ccccc1)c1ccccc1 ?
inactive

Try CCCCCc1ccc(O)cc1 next.
active

----------
# testName: ATG_GLI_CIS: Attagene CIS-FACTORIAL HepG2 Assay for human Zinc Finger Protein GLI1 (AID 2282945)
# experimentalContext: HepG2, Attagene cis-factorial reporter mRNA, GLI element; actives raise or lower the signal
Active and inactive are the calls of the source. Rule for the calls: active = hit-call score of the fitted dose curve at least 0.9, where 1 is the maximum; inactive = score below 0.9.
observable: AC50

Solved cases (5 shown):
compound	endpointResult
Clc1ccc(Nc2nnc(Cc3ccncc3)c3ccccc23)cc1	inactive
NCc1cccc(CN)c1	inactive
CS(=O)(=O)c1ccc([C@@H](CC2CCCC2)C(=O)Nc2cnccn2)cc1Cl	inactive
O=c1cc(-c2ccccc2)oc2ccc3ccccc3c12	inactive
C=Cc1ccc(O)c(OC)c1	inactive

Record request: AC50 value, item NS(=O)(=O)O
inactive

Same again, this time with CC(C)(O)C(=O)c1ccccc1
inactive

Can you handle c1ccc(CNc2ncnc3c2ncn3C2CCCCO2)cc1 (stereo not drawn) next?
inactive

Subsequent entry: CCC1CO1 (stereo not drawn)
inactive

Same read-out for O=C1Cc2ccccc2N1c1c(Cl)cccc1Cl ?
inactive

Next entry: O=C(c1cc(O)c(O)c(O)c1)c1ccc(O)c(O)c1O
inactive

One more compound: CCO[Si](C)(C)OCC
inactive

Consider next the compound COc1ccc(C#N)cc1 in the same way.
inactive

Then O=CC(F)(F)C(F)(F)C(F)(F)F ?
inactive

And the next one, O=C1c2ccccc2C(=O)c2c(O)c(O)cc(O)c21 ?
inactive

Please answer likewise for CCCCCCCCCCCCOC(=O)c1cc(O)c(O)c(O)c1
inactive

Now the same for O=C1NS(=O)(=O)c2ccccc21
inactive

Moving on to the next compound: CNNCc1ccc(C(=O)NC(C)C)cc1
inactive

Now consider CC(O)COc1ccccc1 (stereo not drawn) .
inactive

Cool, now Cc1[nH]nc2c1N=C(c1ccccc1Cl)c1cc([N+](=O)[O-])ccc1N2
inactive

// query: CCc1ccccc1O
inactive

// query: CCCCc1ccc2ccccc2c1S(=O)(=O)O
inactive

----------
# testName: ATG_Ets_CIS: Attagene CIS-FACTORIAL HepG2 Assay for human Erythroblast Transformation Specific (ETS) (AID 2282941)
# experimentalContext: HepG2 ETS cis-reporter transcription; actives raise or lower the signal unless noted
Activity calls are given as the source filed them. How the source made its calls: active means hit-call score of the fitted dose curve at least 0.9, where 1 is the maximum; inactive means score below 0.9.
observable: AC50

The examples below pair each entry with its known result.
CCOC(=O)c1nc(C(Cl)(Cl)Cl)n(-c2ccc(Cl)cc2Cl)n1 100 µM (active)
CCCCCCOC(=O)c1ccc(O)cc1 54.1 µM (active)
O=S(=O)(c1ccc(OCc2ccccc2)cc1)c1ccccc1O 33.4 µM (active)
COc1ccccc1NC(=O)c1cc2ccccc2cc1O 46.5 µM (active)
CCCCCCCCCCCC[N+](C)(C)CCCCCCCCCCCC 36.3 µM (active)

Recorded AC50 of Cc1cc(Cc2cc(C)cc(C(C)(C)C)c2O)c(O)c(C(C)(C)C)c1 , please.
79.4 µM (active)

----------
# targetDesc: CCAAT/enhancer-binding protein beta (Homo sapiens)
# testName: ATG_C_EBP_CIS: Attagene CIS-FACTORIAL HepG2 Assay for human CCAAT/Enhancer Binding Protein (C/EBP) beta (AID 2282927)
# experimentalContext: HepG2 Attagene cis-factorial transcription factor reporter; actives raise or lower the signal
Activity calls are given as the source filed them. How the source made its calls: active means hit-call score of the fitted dose curve at least 0.9, where 1 is the maximum; inactive means score below 0.9.
API: response.call in active, inactive

CCCCCc1ccc(O)cc1 inactive
Brc1ccc(Oc2ccc(Br)cc2Br)cc1 inactive
O=C(F)C(F)(F)C(F)(F)C(F)(F)C(=O)F inactive
COC(=O)C(F)(F)C(F)(F)C(F)(F)C(F)(F)C(F)(F)F inactive
Oc1c(Cl)cc(Cl)cc1Sc1cc(Cl)cc(Cl)c1O inactive
FC1(F)C=CC(F)(F)C1(F)F inactive
O=C1Cc2ccccc2N1c1c(Cl)cccc1Cl inactive
FC(F)(F)C(F)(F)C(F)(F)C(F)(F)I inactive
CC1=NN(c2ccccc2)C(=O)C1 inactive
C=Cc1ccc(O)c(OC)c1 inactive

I'd appreciate the recorded outcome for Nc1ccc(O)c(C(=O)O)c1 from this test.
inactive

What do we get for C=CC(=O)OCCN(CC)CC ?
active

// next record FC(F)(F)C1(F)C(F)(F)C(F)(F)C(F)(F)C1(F)F
inactive

Continue with Cc1cccc2c1ccc1ccccc12
inactive

----------
# Read-out: MicroRNA 122 (MIR122), gene 406906
# testName: LTEA_HepaRG_MIR122: Life Technologies and Expression Analysis (LTEA) Assay for MicroRNA 122 (MIR122) using HepaRG (AID 2283516); also: the transcript read is the microRNA miR-122
# experimentalContext: mRNA level, 48 h; actives raise or lower the signal
Calls of active or inactive are those of the source. Rule for the calls: active = hit-call score of the fitted dose curve at least 0.9, where 1 is the maximum; inactive = score below 0.9.
I would appreciate it if you answered using one of these outcomes: active, inactive

Please state the recorded outcome for this compound: CC(=O)Nc1ccc(O)cc1
inactive

And CS(=O)(=O)c1ccc([C@@H](CC2CCCC2)C(=O)Nc2cnccn2)cc1Cl ?
active

# iterate: CCCCCCCCCCCCCCC
inactive

Follow-up item: CCC(C)c1ccccc1O (stereo not given)
inactive

----------
# Read-out: TIMP metallopeptidase inhibitor 2 (TIMP2), TIMP2 (gene 7077)
# testName: BSK_KF3CT_TIMP2: BioMAP Diversity Plus: KF3CT Assay for TIMP metallopeptidase inhibitor 2 (TIMP2) Biomarker Activity (AID 2283071)
# experimentalContext: primary human keratinocytes with fibroblasts; actives raise or lower the signal
The source made the active and inactive calls. How the source made its calls: active means hit-call score of the fitted dose curve at least 0.9, where 1 is the maximum; inactive means score below 0.9.
observable: AC50

Look over these answered cases.
compound	AC50
Oc1cc2ccccc2cc1O	inactive
O=C(CCCN1CCC(O)(c2ccc(Cl)cc2)CC1)c1ccc(F)cc1	inactive
Cc1[nH]nc2c1N=C(c1ccccc1Cl)c1cc([N+](=O)[O-])ccc1N2	inactive
CCCCCCCCCCCCCCC	inactive
CC(=O)Nc1ccc(O)cc1	inactive

Which AC50 is reported for this compound? Clc1ccc(Nc2nnc(Cc3ccncc3)c3ccccc23)cc1
3.02 µM (active)

// query: CN(CCO)S(=O)(=O)C(F)(F)C(F)(F)C(F)(F)C(F)(F)C(F)(F)C(F)(F)C(F)(F)C(F)(F)F
inactive

COc1cc(OC)nc(NC(=O)NS(=O)(=O)Nc2ccccc2C(=O)N(C)C)n1 ?
inactive

Same question, O=C1NS(=O)(=O)c2ccccc21 this time
inactive

Same question for COCN(COC)c1nc(N(COC)COC)nc(N(COC)COC)n1 please.
inactive

----------
# testName: ATG_ERE_CIS: Attagene CIS-FACTORIAL HepG2 Assay for Estrogen Response Element (ERE) (AID 2282940)
# experimentalContext: HepG2 ERE cis-reporter, Attagene RNA transcript; actives raise or lower the signal
Active and inactive are the calls of the source. The calls were made as follows: active = hit-call score of the fitted dose curve at least 0.9, where 1 is the maximum; inactive = score below 0.9.
Hello, when you answer, please use one of the following outcomes: 1 for active, -1 for inactive

# count of solved cases: 5
compound	categoryLabel
COC1=CC(=O)C[C@@H](C)[C@]12Oc1c(Cl)c(OC)cc(OC)c1C2=O	-1
CC(C)CCOCCC(C)C	1
FC(F)(F)C(F)(F)C(F)(F)Br	-1
COCN(COC)c1nc(N(COC)COC)nc(N(COC)COC)n1	1
C[C@]12CC[C@@H]3c4ccc(O)cc4CC[C@H]3[C@@H]1CC[C@@H]2OC(=O)CCC1CCCC1	1

State the result this test recorded for FC(OC(F)(F)C(F)(F)C(F)(F)F)C(F)(F)F (stereo not drawn) .
-1

Input Nc1ccn([C@@H]2O[C@H](CO)[C@@H](O)C2O)c(=O)n1 (stereo partly drawn)
-1

Continue with COc1cccc(O)c1
-1

----------
# Read-out: Vascular cell adhesion molecule 1 (VCAM1), VCAM1 (gene 7412)
# testName: BSK_CASM3C_VCAM1: BioMAP Diversity Plus: CASM3C Assay for Vascular cell adhesion molecule 1 (VCAM1) Biomarker Activity (AID 2283055);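 also: VCAM-1 protein level quantified by ELISA on the cells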
# experimentalContext: primary human coronary artery smooth muscle cells; actives raise or lower the signal
Active and inactive are the calls of the source. How the source made its calls: active means hit-call score of the fitted dose curve at least 0.9, where 1 is the maximum; inactive means score below 0.9.
Your answer must be one of the following: active, inactive

compound	categoryLabel
CC[N+](CC)(CC)Cc1ccccc1	inactive
CCCCCc1ccc(O)cc1	active
CS(=O)(=O)c1ccc([C@@H](CC2CCCC2)C(=O)Nc2cnccn2)cc1Cl	inactive
O=C(NO)c1ccccc1	inactive
C=CC(C)(CCC=C(C)C)OC(C)=O (stereo not drawn)	active
CCCCC(CC)C(=O)O (stereo not drawn)	inactive
Cc1[nH]nc2c1N=C(c1ccccc1Cl)c1cc([N+](=O)[O-])ccc1N2	active

I'd appreciate the recorded outcome for OCC(CO)(CBr)CBr from this test.
inactive
